# credit: patent US20090270394A1

subjectOfTest: Human Cav2.2 channels (Homo sapiens)
Construct: expressed in transfected cells
Sequence (Q00975 whole entry): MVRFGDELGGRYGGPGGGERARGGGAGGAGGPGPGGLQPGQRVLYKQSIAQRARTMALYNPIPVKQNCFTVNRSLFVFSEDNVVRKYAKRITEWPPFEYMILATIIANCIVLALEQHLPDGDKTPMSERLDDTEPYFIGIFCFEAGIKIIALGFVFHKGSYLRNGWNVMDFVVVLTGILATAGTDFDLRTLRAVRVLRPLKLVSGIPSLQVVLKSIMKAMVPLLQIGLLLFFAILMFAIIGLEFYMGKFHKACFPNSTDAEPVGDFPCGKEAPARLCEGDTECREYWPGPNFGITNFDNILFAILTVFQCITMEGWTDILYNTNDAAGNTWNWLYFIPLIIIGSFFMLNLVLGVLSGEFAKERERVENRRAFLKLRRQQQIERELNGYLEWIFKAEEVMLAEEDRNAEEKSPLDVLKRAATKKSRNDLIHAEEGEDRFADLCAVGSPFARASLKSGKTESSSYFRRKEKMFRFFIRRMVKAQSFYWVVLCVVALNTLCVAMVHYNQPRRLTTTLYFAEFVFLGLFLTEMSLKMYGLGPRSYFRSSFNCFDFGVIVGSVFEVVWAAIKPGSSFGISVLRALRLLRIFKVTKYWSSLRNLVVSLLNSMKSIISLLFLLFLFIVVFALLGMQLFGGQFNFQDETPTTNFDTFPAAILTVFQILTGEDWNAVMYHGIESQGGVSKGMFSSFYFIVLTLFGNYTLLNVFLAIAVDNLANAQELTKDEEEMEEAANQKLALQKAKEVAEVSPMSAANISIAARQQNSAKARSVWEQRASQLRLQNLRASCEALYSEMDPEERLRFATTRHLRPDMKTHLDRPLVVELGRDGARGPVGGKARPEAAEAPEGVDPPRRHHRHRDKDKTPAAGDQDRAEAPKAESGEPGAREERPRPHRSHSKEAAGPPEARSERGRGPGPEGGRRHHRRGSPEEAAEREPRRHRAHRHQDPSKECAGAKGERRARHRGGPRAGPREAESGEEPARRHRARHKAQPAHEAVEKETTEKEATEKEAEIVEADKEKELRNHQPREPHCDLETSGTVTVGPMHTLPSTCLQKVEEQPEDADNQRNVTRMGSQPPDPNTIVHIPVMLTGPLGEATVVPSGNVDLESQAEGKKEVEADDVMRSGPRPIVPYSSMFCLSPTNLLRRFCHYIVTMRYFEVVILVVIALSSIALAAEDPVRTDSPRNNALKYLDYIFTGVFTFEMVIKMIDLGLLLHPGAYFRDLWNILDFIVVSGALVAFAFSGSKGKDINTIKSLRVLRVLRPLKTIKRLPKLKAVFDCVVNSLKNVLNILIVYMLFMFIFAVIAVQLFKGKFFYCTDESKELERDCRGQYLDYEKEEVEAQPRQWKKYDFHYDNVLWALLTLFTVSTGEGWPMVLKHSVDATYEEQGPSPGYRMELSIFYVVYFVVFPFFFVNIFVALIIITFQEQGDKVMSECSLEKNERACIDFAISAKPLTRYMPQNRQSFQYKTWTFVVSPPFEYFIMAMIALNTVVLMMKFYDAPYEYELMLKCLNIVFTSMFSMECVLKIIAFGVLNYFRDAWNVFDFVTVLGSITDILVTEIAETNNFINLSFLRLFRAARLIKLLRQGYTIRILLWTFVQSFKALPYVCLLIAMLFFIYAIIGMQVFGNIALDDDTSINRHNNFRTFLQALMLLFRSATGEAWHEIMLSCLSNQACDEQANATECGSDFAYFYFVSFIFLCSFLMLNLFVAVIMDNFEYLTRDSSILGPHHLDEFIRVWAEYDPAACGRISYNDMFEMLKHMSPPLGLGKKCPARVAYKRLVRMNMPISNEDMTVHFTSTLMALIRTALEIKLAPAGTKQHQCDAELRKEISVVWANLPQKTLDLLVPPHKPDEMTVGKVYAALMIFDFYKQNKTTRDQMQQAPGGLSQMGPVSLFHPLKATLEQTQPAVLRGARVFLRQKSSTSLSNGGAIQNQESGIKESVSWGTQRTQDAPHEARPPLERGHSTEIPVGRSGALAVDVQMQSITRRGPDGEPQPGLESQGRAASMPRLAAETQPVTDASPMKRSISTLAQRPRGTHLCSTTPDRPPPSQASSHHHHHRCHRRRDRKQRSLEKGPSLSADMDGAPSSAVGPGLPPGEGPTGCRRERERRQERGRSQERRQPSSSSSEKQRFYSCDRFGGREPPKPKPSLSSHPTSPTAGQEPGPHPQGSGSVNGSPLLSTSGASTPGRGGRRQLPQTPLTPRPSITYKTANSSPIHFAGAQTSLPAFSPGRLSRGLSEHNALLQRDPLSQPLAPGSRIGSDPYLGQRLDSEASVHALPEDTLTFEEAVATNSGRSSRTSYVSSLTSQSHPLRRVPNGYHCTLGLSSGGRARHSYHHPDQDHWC
Sequence (P54289 25-1103 partner): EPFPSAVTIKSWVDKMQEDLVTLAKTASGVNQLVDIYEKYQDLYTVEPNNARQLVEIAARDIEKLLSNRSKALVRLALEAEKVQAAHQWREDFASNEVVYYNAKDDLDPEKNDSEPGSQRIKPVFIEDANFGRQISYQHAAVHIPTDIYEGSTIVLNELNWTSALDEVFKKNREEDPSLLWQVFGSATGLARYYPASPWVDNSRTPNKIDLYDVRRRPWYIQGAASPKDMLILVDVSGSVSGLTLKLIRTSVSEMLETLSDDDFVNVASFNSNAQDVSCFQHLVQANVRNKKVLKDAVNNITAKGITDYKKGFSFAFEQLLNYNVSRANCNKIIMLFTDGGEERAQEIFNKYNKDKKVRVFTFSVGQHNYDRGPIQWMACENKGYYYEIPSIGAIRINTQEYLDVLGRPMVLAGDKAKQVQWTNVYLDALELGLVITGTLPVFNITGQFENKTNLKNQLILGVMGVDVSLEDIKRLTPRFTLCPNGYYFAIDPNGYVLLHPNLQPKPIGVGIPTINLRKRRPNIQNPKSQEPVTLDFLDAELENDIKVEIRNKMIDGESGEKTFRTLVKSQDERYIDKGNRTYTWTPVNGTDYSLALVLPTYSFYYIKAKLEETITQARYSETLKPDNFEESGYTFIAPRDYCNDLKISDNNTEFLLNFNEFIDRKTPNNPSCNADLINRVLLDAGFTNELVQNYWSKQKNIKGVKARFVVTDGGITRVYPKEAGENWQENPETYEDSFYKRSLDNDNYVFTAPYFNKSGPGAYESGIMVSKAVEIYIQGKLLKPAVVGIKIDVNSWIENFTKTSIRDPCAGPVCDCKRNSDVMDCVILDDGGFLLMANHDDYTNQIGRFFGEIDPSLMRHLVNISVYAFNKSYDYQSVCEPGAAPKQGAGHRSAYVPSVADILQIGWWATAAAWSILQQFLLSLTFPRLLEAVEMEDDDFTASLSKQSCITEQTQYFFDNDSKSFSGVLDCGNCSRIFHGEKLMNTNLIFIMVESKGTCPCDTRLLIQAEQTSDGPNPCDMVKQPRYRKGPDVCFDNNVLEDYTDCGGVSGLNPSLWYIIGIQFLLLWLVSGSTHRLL
Sequence (P54284 whole entry partner): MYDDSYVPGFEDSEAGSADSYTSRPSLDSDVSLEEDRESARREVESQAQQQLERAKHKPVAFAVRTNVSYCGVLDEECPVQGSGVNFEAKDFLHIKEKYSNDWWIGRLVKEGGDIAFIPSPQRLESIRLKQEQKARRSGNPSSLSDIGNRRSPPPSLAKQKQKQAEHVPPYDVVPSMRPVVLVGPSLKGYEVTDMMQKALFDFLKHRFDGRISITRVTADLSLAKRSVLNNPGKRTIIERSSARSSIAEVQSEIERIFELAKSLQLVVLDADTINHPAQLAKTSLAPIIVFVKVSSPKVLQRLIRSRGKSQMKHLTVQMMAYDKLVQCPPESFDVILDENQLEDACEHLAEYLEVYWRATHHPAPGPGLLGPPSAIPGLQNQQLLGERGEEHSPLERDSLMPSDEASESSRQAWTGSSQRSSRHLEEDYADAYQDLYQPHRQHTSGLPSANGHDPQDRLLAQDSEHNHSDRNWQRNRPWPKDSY
assayDetails: Fluorescent assay for Cav2.2 channels using potassium depolarization to initiate channel opening
Format: cell-based
conditionLabel: 10 μM compound; read-out: Cav 2.2 Activity % Inh at 10 μM
Rule: inhibition at 10 µM under 90% gives Not met, otherwise Met.

inhibition at 10 µM >= 90% for N#CCc1cc(CC#N)cc(C(=O)NC2(C(=O)NCc3cccc(C(F)(F)F)c3)CCCCC2)c1 ?
Not met

Can you check CC(C)(C)c1cc(C(=O)NC2(C(=O)NCc3ccccn3)CCCCC2)cc(C(C)(C)C)c1 next?
Met

Would you kindly repeat that for COc1c(C(C)(C)C)cc(CNC2(C(=O)NCc3cccc(C(F)(F)F)c3)CCCCC2)cc1C(C)(C)C ?
Not met

For CC(C)(C#N)c1cc(C(=O)NC2(C(=O)NCc3cccc(C(F)(F)F)c3)CCCCC2)ccn1 then?
Not met

Next up: CC(C)(C)c1cc(C(=O)NC2(C(=O)NCc3ccccc3)CCCCC2)cc(C(C)(C)C)n1
Not met

Lookup Cc1cc(CNC(=O)C2(NC(=O)c3cc(C(C)(C)C)c(O)c(C(C)(C)C)c3)CCCCC2)nn1C
Met

Now this one: CN(C)c1ccc(CNC(=O)C2(NC(=O)c3cc(C(C)(C)C)nc(C(C)(C)C)c3)CCCCC2)cc1
Not met

Follow-up item: CC(C)(C)NC(=O)C(C)(C)c1ccc(C(=O)NC2(C(=O)NCc3cccc(C(F)(F)F)c3)CCCCC2)cc1
Met

Consider next the compound CC(C)(C)c1cc(C(=O)NC2(C(=O)NCc3ccccc3)CCCC2)cc(C(C)(C)C)n1 in the same way.
Met

* * *

subjectOfTest: Human Cav2.2 channels (Homo sapiens)
Construct: expressed in transfected cells
assayDetails: Fluorescent assay for Cav2.2 channels using potassium depolarization to initiate channel opening
Type: cell-based
conditionLabel: 10 μM compound; read-out: Cav 2.2 Activity % Inh at 10 μM
Kind request: treat 90% as inclusive, so inhibition at 10 µM at 90% or higher is 1, anything lower is 0.

Answer whether inhibition at 10 µM of CC(C)(C)c1cc(NC(=O)C2(NCc3ccccc3)CCCCC2)cc(C(C)(C)C)c1 [Compound 43] is greater than or equal to 90%.
0

Then what about the compound CC(C)(C)c1cc(CNC2(C(=O)NCc3ccccc3)CCCCC2)cc(C(C)(C)C)c1 [Compound 57] ?
1

One more compound: CN1CCC(NC(=O)c2cc(C(C)(C)C)nc(C(C)(C)C)c2)(C(=O)NCc2ccccc2)CC1 [Compound 97]
0

Quick one: CC(C)(C)c1cc(NC(=O)C2(NCc3ccc(F)cc3F)CCCCC2)cc(C(C)(C)C)c1 [Compound 42]
0

Proceed to CC(C)(C)c1cc(C(=O)NC2(C(=O)NCc3cccc(C(F)(F)F)c3)CCCC2)cc(C(C)(C)C)c1 [Compound 39]
0

Also, Cc1cc(CNC(=O)C2(NC(=O)c3cc(C(C)(C)C)cc(C(C)(C)C)c3)CCCCC2)nn1C [Compound 68] please.
1

What about this compound? CC(C)(C)c1cc(C(=O)NC2(C(=O)Nc3ccncc3)CCCCC2)cc(C(C)(C)C)c1 [Compound 75]
1

Subsequent entry: CC(C)(C#N)c1cccc(C(=O)NC2(C(=O)NCc3cccc(C(F)(F)F)c3)CCCCC2)c1 [Compound 124]
0

Similarly, CC(C)(C)c1cc(C(=O)NC2(C(=O)NCc3ccccn3)CC2)cc(C(C)(C)C)n1 [Compound 21] ?
1

Now this one: CC(C)(C)c1cc(C(=O)NC2(C(=O)NCc3nccs3)CCCCC2)cc(C(C)(C)C)c1O [Compound 13]
1

Could you do the same for CC(C)(C(N)=O)c1cccc(C(=O)NC2(C(=O)NCc3cccc(C(F)(F)F)c3)CCCCC2)c1 [Compound 121] , please?
0

Check COc1c(C(C)(C)C)cc(C(=O)NC2(C(=O)NCc3cc(C)on3)CCCCC2)cc1C(C)(C)C [Compound 86] too.
1

Then what about the compound CC(C)(C)NC(=O)C(C)(C)c1cc(C(=O)NC2(C(=O)NCc3ccccc3)CCCCC2)cc(C(C)(C)C(=O)NC(C)(C)C)c1 [Compound 63] ?
0

Param item: COc1ccc(C(=O)NC2(C(=O)NCc3cccc(C(F)(F)F)c3)CCCCC2)cc1C(C)(C)C#N [Compound 118]
0

Then CC(C)(C)NC(=O)C(C)(C)c1cc(C(=O)NC2(C(=O)NCc3cccc(C(F)(F)F)c3)CCCCC2)cc(C(C)(C)C(=O)NC(C)(C)C)c1 [Compound 76] ?
0

Also CC(C)(C)c1cc(C(=O)NC2(C(=O)Nc3ccccc3)CCCCC2)cc(C(C)(C)C)c1O [Compound 111] , if possible.
0

Further, for CC(C)(C)c1cc(C(=O)NC2(C(=O)Nc3nc4ccccc4[nH]3)CC2)cc(C(C)(C)C)n1 [Compound 19] ?
0

Okay, and CC(C)(C)c1cc(C(=O)NC2(C(=O)NCc3ccc(S(C)(=O)=O)cc3)CCCCC2)cc(C(C)(C)C)c1O [Compound 112] ?
1

Moving on to COc1ccc(CNC(=O)C2(NC(=O)c3cc(C(C)(C)C)c(OC)c(C(C)(C)C)c3)CCCC2)cc1 [Compound 38]
1

// next record COc1c(C(C)(C)C)cc(C(=O)NC2(C(=O)NCc3nccs3)CCCCC2)cc1C(C)(C)C [Compound 87]
1

# iterate: Cc1cc(CNC(=O)C2(NC(=O)c3cc(C(C)(C)C)c(O)c(C(C)(C)C)c3)CC2)nn1C [Compound 2]
1

Same lookup for COc1ccc(CNC(=O)C2(NC(=O)c3cc(C(C)(C)C)c(O)c(C(C)(C)C)c3)CCCCC2)cc1 [Compound 67] , please.
1

Again, but for COc1c(C(C)(C)C)cc(C(=O)NC2(C(=O)NCc3cnc(C)cn3)CCCCC2)cc1C(C)(C)C [Compound 88]
1

Next record, please: CN(C)c1ccccc1CNC(=O)C1(NC(=O)c2cc(C(C)(C)C)nc(C(C)(C)C)c2)CCOCC1 [Compound 26]
0

* * *

subjectOfTest: UniProt Q00975
assayDetails: Fluorescent assay for Cav2.2 channels using potassium depolarization to initiate channel opening
conditionLabel: 30 mM K (block of open and inactivated channels); read-out: Cav 2.2 Activity IC50 at 30 mM K
For each entry below, report its log10 IC50 value.
Use the decimal logarithm of IC50 (nM).

Find log10 IC50 (UniProt Q00975) for the entry COc1c(C(C)(C)C)cc(C(=O)NC2(C(=O)Nc3ccccc3)CCCCC2)cc1C(C)(C)C [Compound 96]
2.21

// next record CC(C)(C)c1cc(C(=O)NC2(C(=O)N3CCCC3)CCCC2)cc(C(C)(C)C)n1 [Compound 92]
2.35

Field entry: COc1c(C(C)(C)C)cc(C(=O)NC2(C(=O)NCc3ccccc3)CCCCC2)cc1C(C)(C)C [Compound 32]
0.75

What about COc1c(C(C)(C)C)cc(C(=O)NC2(C(=O)NCc3cccc(C(F)(F)F)c3)CCCCC2)cc1C(C)(C)C [Compound 33] ?
1.58

And the next one, Cc1cnc(CNC(=O)C2(NC(=O)c3cc(C(C)(C)C)c(O)c(C(C)(C)C)c3)CC2)cn1 [Compound 3] ?
3.21

Can you handle CC(C)(C)c1cc(C(=O)NC2(C(=O)Nc3ccccc3)CCCCC2)cc(C(C)(C)C)c1O [Compound 111] next?
2.74

Same thing, different compound: CNC(=O)C1(NC(=O)c2cc(C(C)(C)C)cc(C(C)(C)C)c2)CCCCC1 [Compound 35]
3.10

Next compound: CC(C)(C)c1cc(C(=O)NC2(C(=O)NCc3nccs3)CCCCC2)cc(C(C)(C)C)n1 [Compound 80]
2.03

Lookup COc1ccc(CNC(=O)C2(NC(=O)c3cc(C(C)(C)C)c(OC)c(C(C)(C)C)c3)CCCC2)cc1 [Compound 38]
1.56

Further, for CC(C)(C)NC(=O)C(C)(C)c1ccc(C(=O)NC2(C(=O)NCc3cccc(C(F)(F)F)c3)CCCCC2)cc1 [Compound 126] ?
2.44

Now the compound COc1c(C(C)(C)C)cc(CNC2(C(=O)NCc3cccc(C(F)(F)F)c3)CCCCC2)cc1C(C)(C)C [Compound 71]
2.68

Another: CC(C)(C)c1cc(C(=O)NC2(C(=O)NCc3ccccc3)CCCC2)cc(C(C)(C)C)c1 [Compound 36]
2.40

How about this compound: CC(C)(C)c1cc(C(=O)NC2(C(=O)NCc3ccc(S(C)(=O)=O)cc3)CCCCC2)cc(C(C)(C)C)c1 [Compound 107]
2.16

Quick one: Cc1cnc(CNC(=O)C2(NC(=O)c3cc(C(C)(C)C)c(O)c(C(C)(C)C)c3)CCCCC2)cn1 [Compound 5]
2.10

How about CN1CCN(C(=O)C2(NC(=O)c3cc(C(C)(C)C)nc(C(C)(C)C)c3)CCCC2)CC1 [Compound 93] ?
2.93

Try the compound CC(C)(C)NC(=O)C(C)(C)c1ccc(C(=O)NC2(C(=O)NCc3ccccc3)CCCCC2)cc1 [Compound 125]
2.87

Entry CC(C)(C#N)c1cc(C(=O)NC2(C(=O)NCc3cccc(C(F)(F)F)c3)CCCCC2)cc(C(C)(C)C#N)c1 [Compound 40] please
2.56

Now consider CC(C)(C#N)c1cc(C(=O)NC2(C(=O)NCc3ccccc3)CCCCC2)cc(C(C)(C)C#N)c1 [Compound 41] and answer again.
2.99

Consider next the compound COc1c(C(C)(C)C)cc(C(=O)NC2(C(=O)NCc3nccs3)CCCCC2)cc1C(C)(C)C [Compound 87] in the same way.
0.78

Now try COc1c(C(C)(C)C)cc(C(=O)NC2(C(=O)N3CCN(Cc4ccccc4)CC3)CCCCC2)cc1C(C)(C)C [Compound 83] .
2.13

Further, for CC(C)(C)c1cc(C(=O)NC2(C(=O)NCc3nccs3)CC2)cc(C(C)(C)C)c1O [Compound 1] ?
3.08

COc1c(C(C)(C)C)cc(C(=O)NC2(C(=O)N3CCCC3)CCCCC2)cc1C(C)(C)C [Compound 30] , same question.
1.40

COc1c(C(C)(C)C)cc(CNC2(C(=O)NCc3ccccc3)CCCCC2)cc1C(C)(C)C [Compound 72] , same question.
2.16

And for COc1ccc(CNC(=O)C2(NC(=O)c3cc(C(C)(C)C)c(OC)c(C(C)(C)C)c3)CCOCC2)cc1 [Compound 114] ?
1.51

Param item: CC(C)(C)c1cc(C(=O)NC2(C(=O)N3CCOCC3)CCCC2)cc(C(C)(C)C)n1 [Compound 94]
2.52

# iterate: CC(C)(C)c1cc(C(=O)NC2(C(=O)Nc3ccncc3)CCCCC2)cc(C(C)(C)C)c1 [Compound 75]
2.74

Also CC(C)(C)c1cc(C(=O)NC2(C(=O)NCc3ccc(S(C)(=O)=O)cc3)CCCCC2)cc(C(C)(C)C)c1O [Compound 112] , if possible.
2.14

Again, but for Cc1cc(CNC(=O)C2(NC(=O)c3cc(C(C)(C)C)cc(C(C)(C)C)c3)CCCCC2)no1 [Compound 51]
1.80

Repeat for the following compound: CC(C)(C)c1cc(C(=O)NC2(C(=O)NCc3ccccc3)CCCCC2)cc(C(C)(C)C)c1O [Compound 65]
2.09

Same question, CC(C)(C)c1cc(C(=O)NC2(C(=O)NCc3cccc(C(F)(F)F)c3)CCCCC2)cc(C(C)(C)C)c1 [Compound 62] this time
2.00
